What EC50 was measured for each of the following?
Tested on: M-07e cells
Test: M-07e cellular assay (SCF-mediated cell proliferation)
Type: cell-based
Conditions: Homo sapiens, 72 hours, CellTiter Glo

Please report EC50 for every entry that follows.
1. Cc1ncc(-c2noc(C3CN(C(=O)[C@H]4CC4(F)F)C3)n2)cc1NC(=O)c1cnn2ccc(N3CC4(C3)CC(O)(C(F)F)C4)cc12 [Example 281-91]
2. CC(=O)Nc1ncc(C(=O)Nc2cc(-c3noc([C@H]4C[C@@H]4F)n3)ccc2C)s1 [Example 38]
3. Cc1ncc(-c2noc([C@H]3CC3(F)F)n2)cc1NC(=O)c1cnn2ccc(N3CC4(C3)CC(O)(C(F)F)C4)cc12 [Example 281-89]
4. Cc1ccc(-c2noc([C@H]3C[C@@H]3F)n2)cc1NC(=O)c1cnc(-c2ccc3c(c2)C(C)(C)C(=O)N3)o1 [Example 308-37]
5. CC(=O)NC1CN(c2ncc(C(=O)Nc3cc(-c4noc([C@H]5C[C@@H]5F)n4)ccc3C)s2)C1 [Example 98-2]
6. Cc1ncc(-c2noc(C3C[C@@H]3C(F)F)n2)cc1NC(=O)c1cnn2ccc(N3CC4(COC4)C3)cc12 (some centres unmarked) [Example 281-60]

1. > 1000 nM
2. 100 to 1000 nM
3. < 100 nM
4. 100 to 1000 nM
5. > 1000 nM
6. 100 to 1000 nM

Please report EC50 for every entry that follows.
1. Cc1ncc(-c2noc([C@H]3C[C@@H]3F)n2)cc1NC(=O)c1cnn2ccc(-c3c(C)nc(N)nc3C)cc12 [Example 171-10]
2. Cc1ncc(-c2noc([C@H]3C[C@@H](OC(F)(F)F)C3)n2)cc1NC(=O)c1cnn2ccc(N3CC4(COC4)C3)cc12 [Example 270]

1: > 1000 nM; 2: < 100 nM

====

What pEC50 was measured for each of the following?
Test system: M-07e cells
Experiment: M-07e cellular assay (SCF-mediated cell proliferation)
Type: cell-based
Conditions: Homo sapiens, 72 hours, CellTiter Glo
Experimental: M-07e cells (Creative Bioarray, CSC-C0249) which endogenously express human c-KIT were used to evaluate the effect of compounds on stem cell factor (SCF)-mediated cell proliferation. […] Twenty-four hours later, three-fold serially diluted test compounds in media containing SCF (at the previously determined EC90) were added to the plated M-07e cells and incubated for an additional 72 hours. […] The EC50 was determined using GraphPad Prism. […]
pEC50: −log10 of the molar value.

# pEC50 of CCC1(O)CC2(CN(c3ccn4ncc(C(=O)Nc5cc(-c6noc([C@H]7C[C@@H]7F)n6)ccc5C)c4c3)C2)C1 = > 7.00

Please report pEC50 for every entry that follows.
1. Cc1ccc(-c2noc([C@H]3C[C@@H]3F)n2)cc1NC(=O)c1cnn2ccc(N3CC4(C3)CC(O)(C(F)F)C4)cc12
2. Cc1ccc(-c2noc([C@H]3C[C@@H]3F)n2)cc1NC(=O)c1cnn2ccc(NCC3(C(=O)O)COC3)cc12
3. Cc1ccc(-c2noc([C@H]3C[C@@H]3F)n2)cc1NC(=O)c1cnn2cc(-c3nn[nH]n3)ccc12
4. CCOC(=O)c1cc2cc(-c3ncc(C(=O)Nc4cc(-c5noc([C@H]6C[C@@H]6F)n5)ccc4C)o3)ccc2[nH]1
5. Cc1ccc(-c2nc3cc(F)ccn3n2)cc1NC(=O)c1cnn2ccc(N3CC4(C3)CC(O)(C(F)F)C4)cc12

["> 7.00", "< 6.00", "< 6.00", "6.00 to 7.00", "> 7.00"]

Please report pEC50 for every entry that follows.
1. Cc1ccc(-c2noc([C@H]3C[C@@H]3F)n2)cc1NC(=O)c1cnn2cc(Br)ccc12
2. Cc1ncc(-c2noc(C3CC(F)(F)C3)n2)cc1NC(=O)c1cnn2ccc(N3CC4(COC4)C3)cc12
3. Cc1ccc(-c2ncc(C(F)(F)F)cn2)cc1NC(=O)c1cnn2ccc(N3CC4(COC4)C3)cc12
4. O=C(Nc1cc(-c2noc(N3CC(F)(F)C3)n2)ccc1Cl)c1cnn2ccc(N3CC4(COC4)C3)cc12
5. Cc1ncc(-c2nnn(C3CNC3)n2)cc1NC(=O)c1cnn2ccc(N3CC4(C3)CC(O)(C(F)F)C4)cc12
6. Cc1ncc(-c2nnn(C3CC(F)(F)C3)n2)cc1NC(=O)c1cnn2ccc(N3CC4(C3)CC(O)(C(F)F)C4)cc12

1. 6.00 to 7.00
2. > 7.00
3. > 7.00
4. > 7.00
5. < 6.00
6. > 7.00

Please report pEC50 for every entry that follows.
1. Cc1nc(N)nc(C)c1-c1ccn2ncc(C(=O)Nc3cc(-c4noc([C@H]5C[C@@H]5F)n4)sc3C)c2c1
2. Cc1ccc(-c2noc([C@H]3C[C@@H]3F)n2)cc1NC(=O)c1cnc(-c2cccc3c2NC(=O)C3)o1
3. Cc1ccc(-c2noc([C@H]3C[C@@H]3F)n2)cc1NC(=O)c1cnn2ccc(Nc3cn[nH]c3)cc12

< 6.00
< 6.00
> 7.00

====

Target: Recombinant human c-KIT kinase (Homo sapiens (Human), UniProt P10721)
Sequence (P10721 26-976): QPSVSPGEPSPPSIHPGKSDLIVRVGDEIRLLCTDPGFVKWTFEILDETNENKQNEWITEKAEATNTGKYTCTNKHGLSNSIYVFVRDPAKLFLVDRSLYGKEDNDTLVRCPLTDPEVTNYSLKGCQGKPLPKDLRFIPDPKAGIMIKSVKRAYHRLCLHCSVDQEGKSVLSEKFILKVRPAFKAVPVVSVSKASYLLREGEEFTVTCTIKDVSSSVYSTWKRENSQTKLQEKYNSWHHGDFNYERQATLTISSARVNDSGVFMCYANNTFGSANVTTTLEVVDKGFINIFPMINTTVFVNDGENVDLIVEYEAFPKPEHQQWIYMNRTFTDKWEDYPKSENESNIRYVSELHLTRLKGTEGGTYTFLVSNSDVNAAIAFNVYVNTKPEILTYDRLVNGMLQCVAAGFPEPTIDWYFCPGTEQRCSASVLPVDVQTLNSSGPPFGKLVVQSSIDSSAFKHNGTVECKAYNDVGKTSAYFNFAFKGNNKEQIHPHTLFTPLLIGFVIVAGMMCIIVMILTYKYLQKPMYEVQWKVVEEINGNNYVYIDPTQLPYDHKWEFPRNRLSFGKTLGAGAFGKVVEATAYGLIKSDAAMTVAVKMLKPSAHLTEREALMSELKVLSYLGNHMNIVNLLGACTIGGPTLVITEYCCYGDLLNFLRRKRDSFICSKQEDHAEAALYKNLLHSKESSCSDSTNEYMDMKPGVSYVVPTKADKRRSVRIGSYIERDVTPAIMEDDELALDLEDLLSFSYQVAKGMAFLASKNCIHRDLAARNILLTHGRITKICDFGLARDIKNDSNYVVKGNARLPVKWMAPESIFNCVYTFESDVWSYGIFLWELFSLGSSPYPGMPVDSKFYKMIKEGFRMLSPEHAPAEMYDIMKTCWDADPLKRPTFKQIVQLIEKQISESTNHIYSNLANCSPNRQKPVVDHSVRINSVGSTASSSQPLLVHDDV
Assay: c-KIT kinase chemiluminescence assay (ADP-Glo)
Details: ATP 50 μM
What IC50 was measured for each of the following?

Use these answered entries as a reference point.
Tested on Recombinant human c-KIT kinase (Homo sapiens (Human), UniProt P10721), the item CC(=O)N1CC(c2nc(-c3ccc(C)c(NC(=O)c4cnn5ccc(N6CC7(COC7)C6)cc45)c3)no2)C1 showed IC50 equal to 100 to 1000 nM

Tested on Recombinant human c-KIT kinase (Homo sapiens (Human), UniProt P10721), the item Cc1ccc(-c2noc([C@H]3C[C@@H](OC(F)(F)F)C3)n2)cc1NC(=O)c1cnn2ccc(N3CC4(CNC4)C3)cc12 showed IC50 equal to < 100 nM

Tested on Recombinant human c-KIT kinase (Homo sapiens (Human), UniProt P10721), the item Cc1ccc(-c2noc([C@H]3C[C@@H]3F)n2)cc1NC(=O)c1cnc2cccn2c1 showed IC50 equal to > 1000 nM

Tested on Recombinant human c-KIT kinase (Homo sapiens (Human), UniProt P10721), the item Cc1cc(F)c(-c2noc([C@H]3C[C@@H]3F)n2)cc1NC(=O)c1cnn2ccc(N3CC4(C3)CC(O)(C(F)F)C4)cc12 showed IC50 equal to < 100 nM

Tested on Recombinant human c-KIT kinase (Homo sapiens (Human), UniProt P10721), the item Cc1ccc(-c2noc([C@H]3C[C@@H]3F)n2)nc1NC(=O)c1cnn2ccc(N3CC4(COC4)C3)cc12 showed IC50 equal to 100 to 1000 nM

Please report IC50 for every entry that follows.
1. [2H]C([2H])([2H])c1ccc(-c2noc([C@H]3C[C@@H]3F)n2)cc1NC(=O)c1cnn2ccc(N3CC4(COC4)C3)cc12
2. Cc1ccc(-c2nc3cc(F)ccn3n2)cc1NC(=O)c1cnn2ccc(N3CC4(C3)CC(O)(C(F)F)C4)cc12
3. Cc1ncc(-c2noc(C3(F)CN(C(=O)OC(C)(C)C)C3)n2)cc1NC(=O)c1cnn2ccc(N3CC4(C3)CC(O)(C(F)F)C4)cc12
4. Cc1ncc(-c2noc([C@@H]3CN(CC(F)(F)F)[C@H]3C)n2)cc1NC(=O)c1cnn2ccc(N3CC4(C3)CC(O)(C(F)F)C4)cc12
5. Cc1ccc(-c2noc([C@@H]3C[C@@H]4[C@H](C3)C4(F)F)n2)cc1NC(=O)c1cnn2ccc(N3CC4(COC4)C3)cc12

1: < 100 nM; 2: < 100 nM; 3: > 1000 nM; 4: < 100 nM; 5: < 100 nM

Please report IC50 for every entry that follows.
1. Cc1ccc(-c2noc([C@H]3C[C@@H]3F)n2)cc1NC(=O)c1cnn(C)c1
2. Cc1ccc(-c2noc([C@H]3C[C@@H]3F)n2)cc1NC(=O)c1cnn2cc(-c3cnnn3CC(F)(F)F)ccc12
3. Cc1ccc(-c2noc([C@H]3C[C@@H]3F)n2)cc1NC(=O)c1cnn2cc(-c3cn(C45CC(F)(C4)C5)nn3)ccc12

["> 1000 nM", "> 1000 nM", "100 to 1000 nM"]

====

What EC50 was measured for each of the following?
Test system: M-07e cells
Assay: M-07e cellular assay (SCF-mediated cell proliferation)
Type: cell-based
Settings: Homo sapiens, 72 hours, CellTiter Glo

Use these answered entries as a reference point.
# EC50 of Cc1ccc(-c2noc([C@H]3C[C@@H](OC(F)(F)F)C3)n2)cc1NC(=O)c1cnn2ccc(N3CC4(CN(C(=O)OC(C)(C)C)C4)C3)cc12 = 0.1 to 1 µM

# EC50 of Cc1ccc(-c2noc([C@H]3C[C@@H]3F)n2)cc1NC(=O)c1cnc(-c2ccc3c(c2)O[C@H](C)CN3)o1 = 0.1 to 1 µM

# EC50 of Cc1ccc(-c2cnc(C3CC3)nc2)cc1NC(=O)c1cnn2ccc(N3CC4(COC4)C3)cc12 = < 0.1 µM

Next:
# EC50 of Cc1ccc(-c2noc([C@H]3C[C@@H](C(F)(F)F)C3)n2)cc1NC(=O)c1cnn2ccc(N3CC4(COC4)C3)cc12 = < 0.1 µM
